biological target: interaction between p53 and MDM2 proteins (Homo sapiens, UniProt Q00987); assay: HTRF assay of inhibition of the p53-MDM2 interaction (GST-MDM2 / biotinylated p53 peptide); assay type: binding; settings: recombinant GST-tagged MDM2 and biotinylated p53 peptide, 0.02% BSA
Sequence (Q00987 whole entry): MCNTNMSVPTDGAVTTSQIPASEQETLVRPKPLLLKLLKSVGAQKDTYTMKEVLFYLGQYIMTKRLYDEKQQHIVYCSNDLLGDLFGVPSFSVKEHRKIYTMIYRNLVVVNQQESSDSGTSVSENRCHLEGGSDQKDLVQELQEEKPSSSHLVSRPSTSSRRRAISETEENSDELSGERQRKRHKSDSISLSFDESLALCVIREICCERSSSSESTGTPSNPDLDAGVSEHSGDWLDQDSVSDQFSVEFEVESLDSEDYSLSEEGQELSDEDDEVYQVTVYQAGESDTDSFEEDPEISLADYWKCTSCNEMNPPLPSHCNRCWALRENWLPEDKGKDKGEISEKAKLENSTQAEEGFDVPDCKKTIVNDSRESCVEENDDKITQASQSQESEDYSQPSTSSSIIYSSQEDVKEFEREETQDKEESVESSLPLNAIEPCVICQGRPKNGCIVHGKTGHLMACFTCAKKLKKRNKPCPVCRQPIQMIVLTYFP
attribute_measured: IC50 (nM)

Below, each entry is followed by its recorded IC50 result.
Ask: Report value only: IC50, interaction between p53 and MDM2 proteins (Homo sapiens, UniProt Q00987), O=C1Nc2cc(Cl)ccc2C1(Cc1cccc(Cl)c1)Nc1ccc(Br)cc1F (racemic)
Reply: 3.73

Ask: Report value only: IC50, interaction between p53 and MDM2 proteins (Homo sapiens, UniProt Q00987), O=C1Nc2cc(Cl)ccc2C1(Cc1cccc(Cl)c1)NC1CCC1 (racemic)
Reply: 2.54

(A) O=C1Nc2cc(Cl)ccc2C1(Cc1cccc(Cl)c1)N1CCCC(O)C1 (racemic)
(B) O=C1Nc2cc(Cl)ccc2C1(Cc1cccc(Cl)c1)Nc1cccc(OC(F)F)c1 (racemic)
Ask: Pick one: A or B . Which one has the lower reported IC50? Give the label of your selection.
Reply: B
(B: 2.56 nM, A: 3.68 nM)
